Test Protocol: In vitro microsomal stability, rat
Type: in vitro ADME
Settings: rat microsomes, 1 µM; value of 10 = low clearance, essentially below detection limit
Experimental Endpoint: Mic CL r

Compound: O=C(CCN1CCN(C(=O)OCc2cc(Cl)cc(Cl)c2)CC1)c1ccc2[nH]c(=O)oc2c1 [Compound 1, reference compound]
Experimental Endpoint: Mic CL r
Observed: 84 µL/m/mg prot
--
Compound: O=C(OCc1ccc(OC(F)(F)F)cc1)N1C[C@@H]2CN(C(=O)c3ccc4[nH]nnc4c3)C[C@H]2C1 [Compound 13]
Experimental Endpoint: Mic CL r
Observed: 10/10/10 µL/m/mg prot
--
Compound: O=C(CCc1ccc(OC(F)(F)F)cc1)N1C[C@@H]2CN(C(=O)c3ccc4[nH]nnc4c3)C[C@H]2C1 [Compound 14]
Experimental Endpoint: Mic CL r
Observed: 40 µL/m/mg prot
--
Compound: O=C(OCc1cc(Cl)cc(Cl)c1)N1CCC2(CC1)CN(C(=O)c1ccc3[nH]nnc3c1)C2 [Compound 9]
Experimental Endpoint: Mic CL r
Observed: 29 µL/m/mg prot
--
Compound: O=C(OCc1cc(Cl)cc(Cl)c1)N1C[C@@H]2CN(C(=O)c3ccc4[nH]c(=O)oc4c3)C[C@@H]2C1 [Compound 5]
Experimental Endpoint: Mic CL r
Observed: 335 µL/m/mg prot
--
Compound: O=C(OCc1cc(Cl)cc(Cl)c1)N1C[C@@H]2CN(C(=O)c3ccc4[nH]nnc4c3)C[C@H]2C1 [Compound 7]
Experimental Endpoint: Mic CL r
Observed: 10 µL/m/mg prot
--
Compound: O=C(COc1ccc(OC(F)(F)F)cc1)N1C[C@@H]2CN(C(=O)c3ccc4[nH]nnc4c3)C[C@H]2C1 [Compound 12]
Experimental Endpoint: Mic CL r
Observed: 10/na/10 µL/m/mg prot

###

Test Protocol: Single dose PK in rats
Format: in vivo
Settings: plasma; rat, oral gavage, 30 mg/kg

Compound: O=C(CCc1ccc(OC(F)(F)F)cc1)N1C[C@@H]2CN(C(=O)c3ccc4[nH]nnc4c3)C[C@H]2C1 [Compound 14]
AUC(0-inf): 660 ng·h/mL

Compound: CS(=O)(=O)c1cc(Cl)cc(COC(=O)N2C[C@@H]3CN(C(=O)c4ccc5[nH]nnc5c4)C[C@H]3C2)c1 [Compound 15]
AUC(0-inf): 30 ng·h/mL

###

# Mic CL h annotations
Test Protocol: In vitro microsomal stability, human
Type: in vitro ADME
Settings: human microsomes, 1 µM; value of 10 = low clearance, essentially below detection limit
Experimental Endpoint: Mic CL h (µL/m/mg prot)

Compound: O=C(CCN1CCN(C(=O)OCc2cc(Cl)cc(Cl)c2)CC1)c1ccc2[nH]c(=O)oc2c1 [Compound 1, reference compound]
Experimental Endpoint: Mic CL h
Observed: 65
--
Compound: O=C(OCc1cc(Cl)cc(Cl)c1)N1C[C@@H]2CN(C(=O)c3ccc4[nH]nnc4c3)C[C@H]2C1
Experimental Endpoint: Mic CL h
Observed: 16
--
Compound: O=C(OCc1cc(Cl)cc(Cl)c1)N1CC[C@@H]2CN(C(=O)c3ccc4[nH]c(=O)oc4c3)C[C@H]2C1 (relative stereo)
Experimental Endpoint: Mic CL h
Observed: 39

###

Test Protocol: Lipophilicity (LogD, octanol/buffer)
Type: physicochemical
Settings: 1-octanol / 25 mM phosphate buffer; pH 7.4, octanol/25 mM phosphate buffer
Response key: met means logD at 12 h >= 3; not met means logD at 12 h < 3.

Compound: O=C(OCc1cc(Cl)cc(Cl)c1)N1CCC2(CC1)CN(C(=O)c1ccc3[nH]c(=O)oc3c1)C2
Cat: met
--
Compound: O=C(OCc1ccc(OC(F)(F)F)cc1)N1C[C@@H]2CN(C(=O)c3ccc4[nH]nnc4c3)C[C@H]2C1
Cat: met
--
Compound: O=C(OCc1cc(Cl)cc(Cl)c1)N1C[C@@H]2CN(C(=O)c3ccc4[nH]c(=O)oc4c3)C[C@@H]2C1
Cat: met
--
Compound: CS(=O)(=O)c1cc(Cl)cc(COC(=O)N2C[C@@H]3CN(C(=O)c4ccc5[nH]nnc5c4)C[C@H]3C2)c1
Cat: not met
--
Compound: O=C(CCc1ccc(OC(F)(F)F)cc1)N1C[C@@H]2CN(C(=O)c3ccc4[nH]nnc4c3)C[C@H]2C1
Cat: not met
--
Compound: O=C(CCN1CCN(C(=O)OCc2cc(Cl)cc(Cl)c2)CC1)c1ccc2[nH]c(=O)oc2c1 [Compound 1, reference compound]
Cat: not met
--
Compound: O=C(/C=C/c1ccc(OC(F)(F)F)cc1)N1C[C@@H]2CN(C(=O)c3ccc4[nH]nnc4c3)C[C@H]2C1
Cat: not met

###

Test Protocol: Single dose PK in rats
Assay type: in vivo
Settings: plasma, po, 20 mg/kg/day; rat, food admix (FA), 20 mg/kg per day

Compound: O=C(OCc1ccc(OC(F)(F)F)cc1)N1C[C@@H]2CN(C(=O)c3ccc4[nH]nnc4c3)C[C@H]2C1 [Compound 13]
Cmax: 2980 ng/mL

###

Test Protocol: Single dose PK in rats
Format: in vivo
Settings: plasma, po, 20 mg/kg/day; rat, food admix (FA), 20 mg/kg per day

Compound Structure String: O=C(OCc1ccc(OC(F)(F)F)cc1)N1C[C@@H]2CN(C(=O)c3ccc4[nH]nnc4c3)C[C@H]2C1
Tmax / h: 17

###

Test Protocol: Single dose PK in rats
Format: in vivo
Settings: plasma; rat, oral gavage, 20 mg/kg

Compound: O=C(OCc1cc(Cl)cc(Cl)c1)N1C[C@@H]2CN(C(=O)c3ccc4[nH]nnc4c3)C[C@H]2C1 [Compound 7]
Tmax: 15 min

###

Test Protocol: Single dose PK in rats
Type: in vivo
Settings: plasma; rat, oral gavage, 10 mg/kg

Compound Structure String: O=C(OCc1ccc(OC(F)(F)F)cc1)N1C[C@@H]2CN(C(=O)c3ccc4[nH]nnc4c3)C[C@H]2C1
Cmax, ng/mL: 17700

###

Test Protocol: Single dose PK in rats
Type: in vivo
Settings: plasma; rat, oral gavage, 20 mg/kg

Compound Structure String: O=C(OCc1cc(Cl)cc(Cl)c1)N1C[C@@H]2CN(C(=O)c3ccc4[nH]nnc4c3)C[C@H]2C1
Cmax, ng/mL: 2500

###

Dear all, this message contains pIC50 results, target or system human ATX (Homo sapiens, UniProt Q13822).
pIC50: −log10 of the molar value.
Experimental Endpoint: pIC50

Compound Structure String: O=C(CCc1ccc(OC(F)(F)F)cc1)N1C[C@@H]2CN(C(=O)c3ccc4[nH]nnc4c3)C[C@H]2C1
Experimental Endpoint: pIC50
Observed: 8.22

Compound Structure String: O=C(OCc1cc(Cl)cc(Cl)c1)N1CCC2(CC1)CN(C(=O)c1ccc3[nH]c(=O)oc3c1)C2
Experimental Endpoint: pIC50
Observed: 7.77

Compound Structure String: O=C(OCc1cc(Cl)cc(Cl)c1)N1C[C@@H]2CN(C(=O)c3ccc4[nH]nnc4c3)C[C@H]2C1
Experimental Endpoint: pIC50
Observed: 8.40

Compound Structure String: O=C(OCc1cc(Cl)cc(Cl)c1)N1CCC2(CC1)CN(C(=O)c1ccc3[nH]nnc3c1)C2
Experimental Endpoint: pIC50
Observed: 7.17

###

Entries annotated with measured half-life
Test Protocol: Single dose PK in rats
Format: in vivo
Settings: plasma; rat, oral gavage, 30 mg/kg

Compound: CS(=O)(=O)c1cc(Cl)cc(COC(=O)N2C[C@@H]3CN(C(=O)c4ccc5[nH]nnc5c4)C[C@H]3C2)c1 [Compound 15]
half-life: 1.9 h

Compound: O=C(CCc1ccc(OC(F)(F)F)cc1)N1C[C@@H]2CN(C(=O)c3ccc4[nH]nnc4c3)C[C@H]2C1 [Compound 14]
half-life: 3.8 h

###

Test Protocol: Lipophilicity (LogD, octanol/buffer)
Format: physicochemical
Settings: 1-octanol / 25 mM phosphate buffer; pH 7.4, octanol/25 mM phosphate buffer

Compound: O=C(OCc1cc(Cl)cc(Cl)c1)N1CC2(CCN(C(=O)c3ccc4[nH]c(=O)oc4c3)CC2)C1
logD at 12 h: 3.6
--
Compound: O=C(OCc1cc(Cl)cc(Cl)c1)N1CCC2(CC1)CN(C(=O)c1ccc3[nH]nnc3c1)C2
logD at 12 h: 3.6
--
Compound: O=C(COc1ccc(OC(F)(F)F)cc1)N1C[C@@H]2CN(C(=O)c3ccc4[nH]nnc4c3)C[C@H]2C1
logD at 12 h: 3.2
--
Compound: O=C(OCc1cc(Cl)cc(Cl)c1)N1CC[C@@H]2CN(C(=O)c3ccc4[nH]nnc4c3)C[C@H]2C1 (relative stereo)
logD at 12 h: 3.5
--
Compound: O=C(OCc1cc(Cl)cc(Cl)c1)N1C[C@@H]2CN(C(=O)c3ccc4[nH]nnc4c3)C[C@H]2C1
logD at 12 h: 3.1
--
Compound: O=C(OCc1cc(Cl)cc(Cl)c1)N1C[C@@H]2CN(C(=O)c3ccc4[nH]nnc4c3)C[C@@H]2C1
logD at 12 h: 3.1
--
Compound: O=C(OCc1cc(Cl)cc(Cl)c1)N1CC[C@@H]2CN(C(=O)c3ccc4[nH]c(=O)oc4c3)C[C@H]2C1 (relative stereo)
logD at 12 h: 3.7
